Test system: MDA-N
testName: NCI tumour cell line growth inhibition, 48 h
Activity calls are given as the source filed them. Cut-off read from the data, not from the text of the source: active = GI50 up to about 1.1 µM and inactive = higher.
For each of the compounds below, state its GI50.

Record summary for "N#CS/C(Cl)=C(/C(Cl)=C(Cl)Cl)[N+](=O)[O-]" : reported GI50 = 34.6 µM (inactive)

Record summary for C=C1C(OC2O[C@@H]3O[C@@]4(C)CC[C@H]5[C@H](C)CC[C@@H](C2=C)[C@@]35O4)O[C@@H]2O[C@@]3(C)CC[C@H]4[C@H](C)CC[C@@H]1[C@@]24O3 (stereo partly specified) : reported GI50 = > 50 µM (inactive)

Record summary for "CC(=O)OC/C=C\Cn1nc(Br)c(=O)[nH]c1=O" : reported GI50 = 15.6 µM (inactive)

Record summary for "O=C(O)CNc1ccc(C(=O)O)cc1" : reported GI50 = > 100 µM (inactive)

Record summary for "Cc1ccc2c(ccc(/C=C/c3ccc(O)c4ncccc34)[n+]2C)c1" : reported GI50 = > 24 µM (inactive)

Record summary for "COc1ccccc1NC(=S)NN=C(C)c1cccc(C(C)=NNC(=S)Nc2ccccc2OC)n1" : reported GI50 = 70.5 µM (inactive)

// data source = ChEMBL document CHEMBL1201862
